Every entry's value here was drawn from ChEMBL document CHEMBL4020826.

measurement.description: Drug level in Sprague-Dawley rat CSF at 10 mg/kg, sc administered as single dose measured after 1 hr post dose by LC-MS/MS analysis
Type: ADME, organism-based, Cerebrospinal fluid
test.context: read-out: Drug uptake
recorded.metric: concentration at 1 h (nM)
API: value field is a number in nM; no unit string.

input: Sample "COc1cccc(C(=O)N[C@H]2C[C@@](N)(C(=O)O)[C@@H]3[C@@H](C(=O)O)[C@@H]32)c1" — what was its concentration at 1 h?
output: 249

====

measurement.description: Plasma concentration in Sprague-Dawley rat at 15 mg/kg/day, sc administered via infusion measured after 6 hrs post dose by LC-MS/MS analysis
Format: ADME, organism-based
recorded.metric: concentration at 6 h (µM)
API: value field is a number in µM; no unit string.

input: Sample "COc1cccc(C(=O)N[C@H]2C[C@@](N)(C(=O)O)[C@@H]3[C@@H](C(=O)O)[C@@H]32)c1" — what was its concentration at 6 h?
output: 3.84

====

measurement.description: Drug metabolism in rat liver microsomes at 4 uM
Assay type: ADME, microsome
test.context: read-out: Drug metabolism
recorded.metric: metabolised at 4 µM

input: Sample "COc1cccc(C(=O)N[C@H]2C[C@@](N)(C(=O)O)[C@@H]3[C@@H](C(=O)O)[C@@H]32)c1" — what was its metabolised at 4 µM?
output: 23%

====

measurement.description: Tmax in Sprague-Dawley rat at 3 mg/kg, sc measured over 8 hrs by LC-MS/MS analysis
Type: ADME, organism-based
test.context: in vivo
recorded.metric: Tmax (min)
API: value field is a number in min; no unit string.

input: Sample "COc1cccc(C(=O)N[C@H]2C[C@@](N)(C(=O)O)[C@@H]3[C@@H](C(=O)O)[C@@H]32)c1" — what was its Tmax?
output: 26.4

====

measurement.description: Plasma concentration in Sprague-Dawley rat at 1.5 mg/kg/day, sc administered via infusion measured after 24 hrs post dose by LC-MS/MS analysis
Format: ADME, organism-based
recorded.metric: concentration at 24 h (nM)
API: value field is a number in nM; no unit string.

input: Sample "COc1cccc(C(=O)N[C@H]2C[C@@](N)(C(=O)O)[C@@H]3[C@@H](C(=O)O)[C@@H]32)c1" — what was its concentration at 24 h?
output: 403

====

assayed.system: Metabotropic glutamate receptor 1 (Homo sapiens, UniProt Q13255)
Sequence (Q13255 whole entry): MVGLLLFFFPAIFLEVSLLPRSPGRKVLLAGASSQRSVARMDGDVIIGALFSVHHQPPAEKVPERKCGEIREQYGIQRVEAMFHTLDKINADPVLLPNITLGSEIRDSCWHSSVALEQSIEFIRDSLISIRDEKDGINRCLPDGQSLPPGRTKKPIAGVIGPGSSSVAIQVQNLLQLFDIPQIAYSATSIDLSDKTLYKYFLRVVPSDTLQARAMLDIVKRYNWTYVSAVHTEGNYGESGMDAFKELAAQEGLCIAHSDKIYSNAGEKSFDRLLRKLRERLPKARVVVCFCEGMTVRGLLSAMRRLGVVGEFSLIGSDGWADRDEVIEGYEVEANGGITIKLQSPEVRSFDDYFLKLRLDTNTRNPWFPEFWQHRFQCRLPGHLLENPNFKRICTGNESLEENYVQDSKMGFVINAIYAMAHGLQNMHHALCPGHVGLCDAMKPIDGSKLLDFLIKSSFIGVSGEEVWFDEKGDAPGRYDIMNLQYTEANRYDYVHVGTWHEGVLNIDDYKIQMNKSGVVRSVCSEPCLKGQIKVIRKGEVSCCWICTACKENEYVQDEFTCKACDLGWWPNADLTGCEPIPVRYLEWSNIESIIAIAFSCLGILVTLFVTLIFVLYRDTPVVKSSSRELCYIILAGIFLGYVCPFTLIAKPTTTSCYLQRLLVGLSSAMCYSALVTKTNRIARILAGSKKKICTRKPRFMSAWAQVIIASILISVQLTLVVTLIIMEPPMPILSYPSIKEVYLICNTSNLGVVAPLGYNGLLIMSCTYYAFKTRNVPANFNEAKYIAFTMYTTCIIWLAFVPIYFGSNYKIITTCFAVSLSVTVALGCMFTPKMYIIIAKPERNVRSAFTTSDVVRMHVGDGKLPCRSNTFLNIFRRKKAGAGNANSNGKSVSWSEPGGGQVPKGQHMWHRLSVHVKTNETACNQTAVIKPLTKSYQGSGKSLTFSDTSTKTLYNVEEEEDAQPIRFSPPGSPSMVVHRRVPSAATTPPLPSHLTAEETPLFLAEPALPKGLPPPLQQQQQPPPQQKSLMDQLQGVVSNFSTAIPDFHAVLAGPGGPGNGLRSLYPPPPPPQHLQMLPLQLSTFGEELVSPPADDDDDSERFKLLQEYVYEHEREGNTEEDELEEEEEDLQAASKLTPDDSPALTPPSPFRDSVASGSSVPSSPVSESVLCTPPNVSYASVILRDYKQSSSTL
measurement.description: Agonist activity at recombinant human mGlu1 receptor expressed in hamster AV12 cells co-expressing rat EAAT1/Galpha15 assessed as induction of increase in Ca2+ flux after 2.5 mins by Fluo-3 AM dye-based FLIPR assay
pEC50: −log10 of the molar value.
recorded.metric: pEC50

input: Sample "COc1cccc(C(=O)N[C@H]2C[C@@](N)(C(=O)O)[C@@H]3[C@@H](C(=O)O)[C@@H]32)c1" — what was its pEC50?
output: < 4.60

====

measurement.description: Plasma concentration in Sprague-Dawley rat at 0.5 mg/kg/day, sc administered via infusion measured after 48 hrs post dose by LC-MS/MS analysis
Assay type: ADME, organism-based
recorded.metric: concentration at 48 h
Your reply should be a number followed by the unit it is expressed in.

input: Sample "COc1cccc(C(=O)N[C@H]2C[C@@](N)(C(=O)O)[C@@H]3[C@@H](C(=O)O)[C@@H]32)c1" — what was its concentration at 48 h?
output: 0.0951 µM
